Reported MIC values for a set of molecules
# System: M. tuberculosis H37Rv
# test: Minimum inhibitory concentration (MIC) by micro broth dilution, read by visual inspection of the bacterial pellet after 14 d
# Format: cell-based
# setup.conditions: Mycobacterium tuberculosis, 336 h; M. tuberculosis H37Rv, 7H9 broth without Tween-80, 14 d, drug alone without clavulanate; read-out: MIC

Use these answered entries as a reference point.
C[C@@H](O)[C@H]1C(=O)N2C(C(=O)O)=C(SCC(=O)OC(C)(C)C)[C@H](C)[C@H]12 : 2 to 4 µg/mL
C[C@@H](O)[C@H]1C(=O)N2C(C(=O)O)=C(SCC(F)(F)F)[C@H](C)[C@H]12 : 4 to 8 µg/mL
C[C@@H](O)[C@H]1C(=O)N2C(C(=O)O)=C(S[C@@H]3CN[C@H](C(=O)N(C)C)C3)[C@H](C)[C@H]12 [Meropenem, reference compound] : 4 to 8 µg/mL

Could you now look at the following molecule, please?
get_value(item= C[C@@H](O)[C@H]1C(=O)N2C(C(=O)[O-])=C(SC3Cn4cnc[n+]4C3)[C@H](C)[C@H]12 (stereo partly shown) [Biapenem, reference compound] , readout=MIC) returns 2.5 to 5 µg/mL
